// reported CTG-3D luminescence at 96 h for each item listed
Test system: HCI-005.E2 (organoid from a breast cancer xenograft with a HER2-positive history)
Assay: CTG-3D luminescence at 96 h relative to day-0 seeding control (ratio to day 0); higher = more growth / less cytotoxicity; PDxO 3D drug screen, 96 h, CTG-3D normalised to day-0 seeding control.
Conditions: 1 µM
measurement_label: CTG-3D luminescence at 96 h

>  <smiles_str>
CC1(C)CCC(c2ccc(Cl)cc2)=C(CN2CCN(c3ccc(C(=O)NS(=O)(=O)c4ccc(N[C@H](CCN5CCOCC5)CSc5ccccc5)c(S(=O)(=O)C(F)(F)F)c4)cc3)CC2)C1

>  <measurement_label>
CTG-3D luminescence at 96 h

>  <recorded_measurement>
1.24

$$$$
>  <smiles_str>
O=C(/C=C/c1cccnc1)NCCCCC1CCN(C(=O)c2ccccc2)CC1

>  <measurement_label>
CTG-3D luminescence at 96 h

>  <recorded_measurement>
0.135

$$$$
>  <smiles_str>
NC(=O)Nc1cc(-c2cccc(F)c2)sc1C(=O)N[C@H]1CCCNC1

>  <measurement_label>
CTG-3D luminescence at 96 h

>  <recorded_measurement>
0.674

$$$$
>  <smiles_str>
C[C@H](NC(=O)CCC(F)(F)F)C(=O)N[C@@H]1C(=O)N(CCO)c2ncccc2-c2ccccc21

>  <measurement_label>
CTG-3D luminescence at 96 h

>  <recorded_measurement>
1.33

$$$$
>  <smiles_str>
CC(C)n1nc(-c2ccc3oc(N)nc3c2)c2c(N)ncnc21

>  <measurement_label>
CTG-3D luminescence at 96 h

>  <recorded_measurement>
0.362

$$$$
>  <smiles_str>
C/C=C1\NC(=O)[C@H]2CSSCC/C=C/[C@H](CC(=O)N[C@H](C(C)C)C(=O)N2)OC(=O)[C@H](C(C)C)NC1=O

>  <measurement_label>
CTG-3D luminescence at 96 h

>  <recorded_measurement>
0.0546

$$$$
>  <smiles_str>
NC1(C(=O)N[C@@H](CCO)c2ccc(Cl)cc2)CCN(c2nc[nH]c3nccc2-3)CC1

>  <measurement_label>
CTG-3D luminescence at 96 h

>  <recorded_measurement>
1.02

$$$$
>  <smiles_str>
CC(=O)O[C@H]1C(=O)[C@@]2(C)[C@H]([C@H](OC(=O)c3ccccc3)[C@]3(O)C[C@H](OC(=O)[C@H](O)[C@@H](NC(=O)c4ccccc4)c4ccccc4)C(C)=C1C3(C)C)[C@]1(OC(C)=O)CO[C@@H]1C[C@@H]2O

>  <measurement_label>
CTG-3D luminescence at 96 h

>  <recorded_measurement>
1.49

$$$$
>  <smiles_str>
COc1cccc2c1C(=O)c1c(O)c3c(c(O)c1C2=O)C[C@@](O)(C(=O)CO)C[C@@H]3O[C@H]1C[C@H](N)[C@H](O)[C@H](C)O1

>  <measurement_label>
CTG-3D luminescence at 96 h

>  <recorded_measurement>
0.557

$$$$
>  <smiles_str>
CCc1c2c(nc3ccc(O)cc13)-c1cc3c(c(=O)n1C2)COC(=O)[C@]3(O)CC

>  <measurement_label>
CTG-3D luminescence at 96 h

>  <recorded_measurement>
1.17

$$$$
>  <smiles_str>
Nc1ccn([C@@H]2O[C@H](CO)[C@@H](O)C2(F)F)c(=O)n1

>  <measurement_label>
CTG-3D luminescence at 96 h

>  <recorded_measurement>
0.224

$$$$

Reference for the values: the supplement of paper PMC8882468
